- assayedTarget: purified recombinant human Aggrecanase-1 (rAgg1) (Homo sapiens)
- Sequence (O75173 213-837): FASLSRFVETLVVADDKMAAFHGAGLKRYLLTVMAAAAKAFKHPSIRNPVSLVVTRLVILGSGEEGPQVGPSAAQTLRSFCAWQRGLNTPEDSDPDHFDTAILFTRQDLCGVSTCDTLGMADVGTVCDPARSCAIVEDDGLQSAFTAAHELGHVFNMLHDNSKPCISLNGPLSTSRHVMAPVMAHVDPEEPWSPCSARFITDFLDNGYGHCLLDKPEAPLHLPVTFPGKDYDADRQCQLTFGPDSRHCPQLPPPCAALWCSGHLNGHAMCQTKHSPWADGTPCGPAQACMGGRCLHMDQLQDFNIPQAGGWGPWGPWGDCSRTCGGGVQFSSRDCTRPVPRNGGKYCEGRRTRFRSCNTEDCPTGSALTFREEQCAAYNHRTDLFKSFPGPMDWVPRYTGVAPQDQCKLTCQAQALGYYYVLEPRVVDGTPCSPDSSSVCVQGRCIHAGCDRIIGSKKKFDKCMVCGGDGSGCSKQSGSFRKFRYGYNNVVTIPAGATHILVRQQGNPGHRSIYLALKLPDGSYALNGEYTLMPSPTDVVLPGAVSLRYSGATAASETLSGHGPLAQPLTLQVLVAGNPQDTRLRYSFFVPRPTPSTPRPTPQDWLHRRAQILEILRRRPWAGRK
- assayInfo: In vitro fluorescence screen for Aggrecanase-1 inhibitors
- Format: biochemical
- measurementSetup: Table 2; read-out: Agg1 IC50
propertyMeasured: log10 of IC50 (log10 of the value in µM)
Recall that a logarithmic scale is used here: each number is log10 of IC50 in µM.

[ask] GET /values?readout=log10 of IC50&item= CC(NC(=O)[C@H](CCC(=O)OC(C)(C)C)NC(=O)c1ccc(-c2ccccc2)cc1)c1ccccc1 (stereo partly shown)
[reply] -0.68

[ask] Next: `Cc1cccc(CNC(=O)[C@H](CCC(=O)O)NC(=O)c2ccc3c(c2)C(=O)c2ccccc2-3)c1`
[reply] -0.50

[ask] What do we get for COc1ccc(-c2ccc(C(=O)N[C@@H](CCC(=O)O)C(=O)NCc3cc(OC)c(OC)c(OC)c3)cc2)cc1OC [Example 17F] ?
[reply] 0.23

[ask] Moving on to `CCCCN(C)C(=O)[C@H](CCC(=O)O)NC(=O)c1ccc2c(c1)Cc1ccccc1-2`
[reply] 0.59

[ask] Try this compound too: O=C(O)CC[C@H](NC(=O)c1ccc(-c2ccc(O)cc2)cc1)C(=O)NCC12CC3CC(CC(C3)C1)C2 [Example 17O]
[reply] 0.93

[ask] Moving on to the next compound: CCC(C)c1ccc(-c2ccc(C(=O)N[C@@H](CCC(=O)O)C(=O)NC(C)(C)Cc3ccccc3)cc2)cc1 (stereo partly shown) [Example 17S]
[reply] 0.66

----------
- assayedTarget: purified recombinant human Aggrecanase-2 (Ag2t-Phe628-Strep) (Homo sapiens, UniProt Q9UNA0)
- Construct: the form used is denoted as Ag2t-Phe628-Strep (MW=41,737)
- Sequence (Q9UNA0 262-628): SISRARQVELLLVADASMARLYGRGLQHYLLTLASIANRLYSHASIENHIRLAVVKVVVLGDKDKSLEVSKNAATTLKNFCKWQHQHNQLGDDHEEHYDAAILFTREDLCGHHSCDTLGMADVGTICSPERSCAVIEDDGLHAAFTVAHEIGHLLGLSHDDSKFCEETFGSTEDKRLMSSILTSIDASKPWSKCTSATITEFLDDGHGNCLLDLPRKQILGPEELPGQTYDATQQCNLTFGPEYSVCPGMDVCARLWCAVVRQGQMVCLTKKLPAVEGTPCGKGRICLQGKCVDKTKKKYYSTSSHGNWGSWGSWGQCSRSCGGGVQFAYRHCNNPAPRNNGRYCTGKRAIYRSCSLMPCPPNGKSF
- assayInfo: In vitro fluorescence screen for Aggrecanase-2 inhibitors
- measurementSetup: Table 3; read-out: Ki Agg2
I'd appreciate it if you could supply Ki values for the items below.
Field: numeric (µM). Do not append units.

[ask] Returns the measured Ki for the input molecule. Input: `CC(C)(Cc1ccc(F)cc1)NC(=O)[C@H](CCC(=O)O)NC(=O)c1ccc(-c2cccc(F)c2)cc1`
[reply] 0.081

[ask] Try this molecule next: `CC(C)(Cc1ccccc1)NC(=O)[C@H](CCC(=O)O)NC(=O)c1ccc(-c2ccc(F)c(Cl)c2)s1`
[reply] 0.156

[ask] Another: `CC(C)(Cc1ccccc1)NC(=O)[C@H](CCC(=O)O)NC(=O)c1ccc(-c2ccc(F)cc2)s1`
[reply] 0.126

[ask] What would you report for `CC(C)(Cc1ccc(F)cc1)NC(=O)[C@H](CCC(=O)O)NC(=O)c1ccc(-c2ccc(Br)s2)cc1` ?
[reply] 0.072

[ask] Now give it for `CC(C)(Cc1ccc(F)cc1)NC(=O)[C@H](CCC(=O)O)NC(=O)c1ccc(-c2cccc(Cl)c2)cc1` too.
[reply] 0.157

[ask] One more molecule: `COc1cccc(-c2ccc(C(=O)N[C@@H](CCC(=O)O)C(=O)NC(C)(C)Cc3ccccc3)s2)c1`
[reply] 0.151

[ask] Moving on to the next molecule: `CC(C)(Cc1ccc(Cl)cc1)NC(=O)[C@H](CCC(=O)O)NC(=O)c1ccc(-c2ccc(F)cc2)s1`
[reply] 0.087

[ask] Again, but for `CC(C)(Cc1ccc(F)cc1)NC(=O)[C@H](CCC(=O)O)NC(=O)c1ccc(-c2ccc(F)c(F)c2)cc1`
[reply] 0.16

[ask] Request: `CC(C)(Cc1ccccc1)NC(=O)[C@H](CCC(=O)O)NC(=O)c1ccc(-c2ccc(Br)s2)cc1`
[reply] 0.066

[ask] Entry to check: `CC(C)(Cc1ccc(Cl)cc1)NC(=O)[C@H](CCC(=O)O)NC(=O)c1ccc(-c2ccc(Br)s2)cc1`
[reply] 0.069

[ask] Same again, this time with `COc1cccc(-c2ccc(C(=O)N[C@@H](CCC(=O)O)C(=O)NC(C)(C)Cc3ccc(F)cc3)s2)c1`
[reply] 0.143

Recorded values, source patent US7998965B2.
